These entries and their values trace back to ChEMBL document CHEMBL1131704.

- ASSAYED TARGET: UniProt:P21728
- Sequence (P21728 whole entry): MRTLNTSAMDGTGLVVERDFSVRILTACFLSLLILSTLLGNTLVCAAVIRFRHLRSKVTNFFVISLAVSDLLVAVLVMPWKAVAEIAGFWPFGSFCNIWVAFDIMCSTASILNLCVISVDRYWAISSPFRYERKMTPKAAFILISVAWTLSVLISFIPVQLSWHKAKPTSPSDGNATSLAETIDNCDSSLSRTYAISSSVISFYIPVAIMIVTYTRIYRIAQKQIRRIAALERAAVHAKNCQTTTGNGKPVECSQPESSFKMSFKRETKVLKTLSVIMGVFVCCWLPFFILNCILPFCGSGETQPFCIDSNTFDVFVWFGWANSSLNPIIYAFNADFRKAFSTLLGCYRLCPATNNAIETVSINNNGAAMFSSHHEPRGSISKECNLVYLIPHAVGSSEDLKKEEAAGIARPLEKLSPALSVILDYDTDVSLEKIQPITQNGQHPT
- MEASUREMENT PROTOCOL: Potency in adenylate cyclase functional assay against Dopamine receptor D1
pEC50: −log10 of the molar value.
Let's look at some compounds and their measured pEC50.

>  <STRUCTURE>
Oc1cc2c(cc1O)[C@H]1c3cc4c(nc3CN[C@@H]1CC2)CCCC4

>  <pEC50>
7.20

$$$$
>  <STRUCTURE>
CCCc1ccc2c(n1)CN[C@@H]1CCc3cc(O)c(O)cc3[C@@H]21

>  <pEC50>
8.07

$$$$
>  <STRUCTURE>
Cc1cncc2c1CN[C@@H]1CCc3cc(O)c(O)cc3[C@@H]21

>  <pEC50>
6.64

$$$$
>  <STRUCTURE>
Oc1cc2c(cc1O)[C@H]1c3cncc(F)c3CN[C@@H]1CC2

>  <pEC50>
6.10

$$$$
>  <STRUCTURE>
Oc1cc2c(cc1O)[C@H]1c3ccc(F)nc3CN[C@@H]1CC2

>  <pEC50>
7.74

$$$$
>  <STRUCTURE>
Cc1cnc2c(c1)[C@@H]1c3cc(O)c(O)cc3CC[C@H]1NC2

>  <pEC50>
6.96

$$$$
>  <STRUCTURE>
COc1ccc2c(n1)CN[C@@H]1CCc3cc(O)c(O)cc3[C@@H]21

>  <pEC50>
8.06

$$$$
>  <STRUCTURE>
CCCCc1cnc2c(c1)[C@@H]1c3cc(O)c(O)cc3CC[C@H]1NC2

>  <pEC50>
6.74

$$$$
>  <STRUCTURE>
Cc1ccc2c(n1)CN[C@@H]1CCc3cc(O)c(O)cc3[C@@H]21

>  <pEC50>
7.64

$$$$
>  <STRUCTURE>
Oc1cc2c(cc1O)[C@H]1c3cccnc3CN[C@@H]1CC2

>  <pEC50>
8.17

$$$$
